test_details: yeast display, Sf9 membrane polyspecificity reagent, FACS + sequencing; frameworks hold sequencing errors

seq_text	polyreactivity (PSR sort gate)
QVQLVESGGGLVQAGGSLRLSCAASGSTLSYYAMGWYRQAPGKERELVAAISSGGTTNYADSVKGRFTISRDNAKNTVYLQMNSLKPEDTAVYYCAAVRKSWWYSSEYYYWGQGTQVTVSS	low polyreactivity
QVQLVESGGGLVQAGGSLRLRCAASGSTFGYNAMGWYRQAPGKESELVAAISSSGGTTYYADSVKARFTISRDNAKNTVYLQMNSLKPEDTAVYYCAADHTVGRYEFEFWGQGTQVTVSS	low polyreactivity
QVQLVESGGGLVQAGGSLRLSCAASGIIFSRYAMGWYRPAPGKVRELVASITGRVGSTYYADSVKGPFTISRDNAKNTVYLQMNRLNPEDTAVYYCAADYVYKFDYWGHGTQVTVSS	low polyreactivity
QVQLVESGGGLVQAGGSLRLSCAASGRIFGENAMGWYRQAPGKERELVAAINSGGSTSYADSVKGRFTISRDNAKNTVYLQMNSLKPEDTAVYYCAADEIQGFYTHSFEYWGQGTQVTVSS	low polyreactivity

---

test_details: yeast display, Sf9 membrane polyspecificity reagent, FACS + sequencing; frameworks hold sequencing errors
measurement_type: polyreactivity (PSR sort gate)

seq_text	measurement_type	measured_result
QVQLVESGGGLVQAGGSLRLSCAASGLTFLNNAMGWYRQAPVKERELVAAISVGGSTNYADSVKGRFTISRDNAKNTVYLQMNSLKPEDTAVYYCAAVYTSASYGSWGQGTQVTVSS	polyreactivity (PSR sort gate)	low polyreactivity
QVQLVESGGCIVQAGGSLRFSCAASGFTFNRYAMGWYRQAPGKERELVAAITRRGGSTYYADSVKGRFTISRDNAKNTVYFQMNSLKPEDTAVYYCNVDFQAYGIPMDYWGQGTQVNVSS	polyreactivity (PSR sort gate)	high polyreactivity
QVQLVESGGGLVQAGGSLRLSCAASGRICGSYAMGWYRQAPGKERELVAAISWRGTSTYYADSVKGRFTISRDNAKNTVYLQMNSLKPEDTAVYYCAAAVDAFTNKQYYYWGQGTLVTVSS	polyreactivity (PSR sort gate)	low polyreactivity
QVQLVESGGGLVQAGGSLRLSCAASGSTFVRYAKGWYRQAPGKETELVAAISYRGGSTYYADSVKGRFTISRDNAKNTVYLQMNSLKPEDTAVYYCAAESRHVEGEYWGQGTQVTVSS	polyreactivity (PSR sort gate)	high polyreactivity

Please examine the following record next.
Ask: Identify the reported polyreactivity (PSR sort gate) for the following entry. QVQLVESGGGLVQAGGSLRLICAASGSIFRKNAMGWYRQAPGKERELVAAITGTGRTTYADSVMGRFTISRDNAKNTVYLQRNSLKPEDTAVYYCAADVNYYQHRLYYWGQGTQVTVSS
Reply: low polyreactivity

---

test_details: yeast display, Sf9 membrane polyspecificity reagent, FACS + sequencing; frameworks hold sequencing errors
measurement_type: polyreactivity (PSR sort gate)

Some sequences with known polyreactivity (PSR sort gate) results, for comparison:
seq_text	polyreactivity (PSR sort gate)
QVQLVESGGGLVQAGGSLRLSCAASGFILGGYAMGWYRQAPGKERELVAAISWSSGSTYYADSVKGRFTISRDNAKTTVYLQLNSLKPEDTAVYYCAAVGAYDYWGQGTQVTVSS	low polyreactivity
QVQLVESGGGLVQAGGSLRLSCAASGLIFSTYDMGWYRQAPGKDRELVAAISTGGSTYCADSVKGRFTMSRDNAKYTVYLQMNSLKPEDTAVYYCAAGYTYHSWPLYYWDYNYWGQGTQVTVSS	low polyreactivity
QVQLVESGGGLVQAGGSLRLSCAASGSTFTDYDMGWYRQAPGKERELVAAITSGGSTNYADSVKGRCTISRDNAKNTVYLQMNRLKPEDTAVYYWAAADADSKYDYWGQGTQVTVSS	low polyreactivity
QVQLVESGGGLVQAGGSLRLTCAASGFTFARNTMGWYRQAPGKERELVAAISKNGGSTYYADSVKGRFTISRDNAKNTVYLQMNSLTPEDTAVYYCNTYPSKVGRYSVKDYEYGYWGQGTQVTVSS	high polyreactivity
QVQLVESGGGLVQAGGSLRLSCAASGIISSVYAMGWYRQAPGKERELVAAISGSGGSTYYADSVKGRFTISRDNAKNTVYLQMNSLKPEDTAVYYCAIGYQYQGNSYGYWGQGTQVNVSS	low polyreactivity

Ask: Tell me its polyreactivity (PSR sort gate) given QVQLLESGGGLVQAGGSLRFTGAASGSTIAGNAMVWYRHEPGKERELVAVITRGGSTNYADSVKGRFTISRDNAKNNVYLQMNSLKPEDTAVYYCARYRFLLDYWRGGYYWGQGTQVTVSS as the entry.
Reply: high polyreactivity

Ask: Entry QVQLVESGGGLVQAGGSLRLSCAASGGTFTDYAMGWYRQAPGKERELVAAISSVGSTNYADSVKGRFTITRDNAQNTVYLQMNSLNPEDTAVYYCAADVYRYWISEYDDYWGQGTQVNVSS needs its polyreactivity (PSR sort gate) filled in; supply it.
Reply: low polyreactivity

Ask: Please supply the value of reported polyreactivity (PSR sort gate) for the item QVQLVESGGGLVQAGGSLRLSCAASGSTFPYYAMGRYRQAPGKERELVAAISQNGGSTYYADSVKGRFTISRDNAKNTVYLQMNSLKPEDTAVYYCNADGVGGEYRLSGYDYWGQGTQVTVSS
Reply: low polyreactivity

Ask: Consider the sequence QVQLVESGGGLVQAGGSLRLSCAASGRNFCNYAMGWYIQAPGKERELVAVIRFSDGSTYYADSVKGRFTISRDNAKNTVYLQMNSLKPEDTAVYYCAAKGPRRWGSGFDYWGQGTQVTVSS and give its recorded polyreactivity (PSR sort gate).
Reply: low polyreactivity

Ask: Name the recorded polyreactivity (PSR sort gate) of the item QVQLVESGGGLVQAGGSLRLSCAPSGSIFSAYAMGWYRQAPGKERELVAAITRGTSTNYADSVKGRFTISRDNAKNTVYLQMNSLKPEDTAVYYCAAEYGWYYVNFYYWGQGTQVTVSS in your answer.
Reply: low polyreactivity

Ask: Please give measured polyreactivity (PSR sort gate) of the following entry: QVQLVESGGGLVQAGGSLRLSCAASGSIFYYYAMGWYRQAPGKERELVAAITSGGSTYYADSVKGRFTISRDNAKNTVYLQMNSLKPEDTAVYYCAAYGYYRGYPFHWYDYWGQGTQVTVSS
Reply: high polyreactivity

---

test_details: yeast display, Sf9 membrane polyspecificity reagent, FACS + sequencing; frameworks hold sequencing errors
measurement_type: polyreactivity (PSR sort gate)

Sample answers from the record:
seq_text	measured_result
QVQLVESGVGLVQAGGSLRLSCAASGLIFYKYAMGWYRQAPGKERELVAAITRGGGSTSYADSVKGRFTISRDNAKNTVYLQMNSLKPEDTAVYYCNAAPYTRALQGEFDYWGQGTQVTVSS	high polyreactivity
QVQLVESGGRLVQAGGSLRLSCAASGFIFFTYAMGWYRQAPGKERELVAVITRGGSTYYADSVKGRFTISRDNAKNTVYLQMNSLKPEDTAVYYCAARRYRYFDGTVPLDYWGQGTQVSVSS	high polyreactivity
QVQLVESGGGLVQAGGSLRLSCAASGSTFTSNAMGWYRQAPGKEREFVAAISVGGGITYYADSVKGRFTISRDNAKISVYLQMNSLKPEDTAVYYCAADGEYPHSEDFEYWGQGTQVTVSS	low polyreactivity
QVQHVESGGGLVQAGGSLRLRCAASGTTFSSNAMGWSRHAPGKERELVASITRGGSTSADSVKGRFTISRDNAKNTVYLQMNSLKPEDTAVYYCAKSVTGWRGLWYTPRNYYWGQGTQVTVSS	high polyreactivity

Please look at the following sequence next.
Ask: Return the recorded polyreactivity (PSR sort gate) value; entry: QVQLEESGGVLVQAGGSLRLSCAASGSIFDAYAMGWYRQAPGKDRELVADITVSAGRTYYADSVNGRFTISRDNAKNTVYLQMNSLKPEDTAVYYCAADSIVGDGYWSYYWGQGTQVTVSS
Reply: low polyreactivity

---

test_details: yeast display, Sf9 membrane polyspecificity reagent, FACS + sequencing; frameworks hold sequencing errors
measurement_type: polyreactivity (PSR sort gate)

As a guide, the following entries are already answered.
seq_text	polyreactivity (PSR sort gate)
QVQLVESGGGLVQAGGSLRLSCAASGSIFYLYAMGWYRPAPGKERELVARITIRGGSTYYADSVKGRFTISRDNAKNTVYLQMNSLKPEDTAVYYCAARRPYGDYDYWGQGTQVTVSS	high polyreactivity
QVQLVESGGGLVQAGGSLRLSCAASGLTFRGYTMGWYRQAPGKERELVARITYSGGSTYYADSVKGRFTISRDNAKNTVYLQMNSLKPEDTAVYYCAKEIWRHWTGDYWGQGTQVTVSS	high polyreactivity
QVQLVESGGGLVQAGGSLRLSCAASGRTFLYNAMGWYRQAPGKERELVAAISGRGGRTYYADSVKGRFTISRDNAKNTVYLQMNSLKPEDTAVYYCAASQYYRWVIGYDFEYDYWGQGTQVTVSS	high polyreactivity
QVQLVESGGGLVQAGGSLRLSCAASGRICGVYAMGWYRQAPGKERELVAAITARGGSTYYADSVKGRFTISRDNAKNTVYLQMNSLKPEVTAVYYCATRLYKRTRTITYGYWGQGTQVTVSS	high polyreactivity
QVQLVESGGGLVQAGGSLRLSCAASGSTFYGNAMGWYRQAPGKERELVAAISRGGGSTYYADSVKGRFTISRDNAKNTVYLQMNSLKPEDTAVYYCAATRYLHPWYYPYYYWGQGTQVTVSS	low polyreactivity
QVQLVESGGGLVQAGGSLRISCAASGRIFYVYAMGWYRQAPGKERELVAAISTGSPTYYADSVNGRFTISRDNAKNTVYLQMNSLKPEDTAVYFCATGSIHGDFWSFRHQYYYWGQGTQVTVSS	low polyreactivity
QVQLVESGAGLVHAGGSLRLCCAASGRIFNGYSMGWYRQAPGKERELVAGISYSGGSTYYADSVKGRFTISRDNAKNTVYLQMNSQKPEETAVYYCAKRPYYLGNRYRFDYWGQGTQVSVSS	high polyreactivity
QVQLVESGGGLVQAGGSLRLSCAASGIIFATYAMGWYRQAPGKERELVASISTGDSTNYADSVKGRFTISRDNAKNTVYLQMNSLKPEDTAVYYCNADSYPYYVYGSNDYWGQGTQVTVSS	low polyreactivity

Ask: Supply polyreactivity (PSR sort gate) value. Item: QVQLVESGGGLVQAGGSLRLSCAASGGIFAYNVMGWYRQAPGKERELVAAISSAGSTYYADSVKGRFTISRDNAKNTVYLQMNSLKPEDTAVYYCAVRIGLKYDYWGQGTQVTVSS
Reply: low polyreactivity

Ask: Write down polyreactivity (PSR sort gate) measured for item QVQLVESGGGLVQAGGSLRLSCAASGRIFGVYALGWYRQAPGKERELVAVISSGGSTKYADSVKGRFTISRDTAKNTVYLQMNSLKPEDTAVYYCAAADYRFWSRYDYWGQGTQVTVSS
Reply: low polyreactivity

Ask: Tell me measured polyreactivity (PSR sort gate) for QVQLVESGGGLVQAGGSLRVSCAASGFIFLAYAMGWYSQAPGKERELFAAIDTSGGSTYYADSVKGRFTSTRDNAKNTVYLQMNSLKPEDSAVYYCAADDYDQYYFDYDYWGQGTQVTVSS please.
Reply: low polyreactivity

All figures here come from the nanobody polyreactivity screen of Harvey et al. (2022).
